- target: Phospholipid hydroperoxide glutathione peroxidase GPX4 (Homo sapiens)
- methodNotes: Primary qHTS Assay for Inhibitors of Recombinant Selenoprotein Glutathione Peroxidase 4 (GPX4) (AID 1845192); note: nearly all actives have a fitted effect of over 65% in size
- conditionSet: recombinant GPX4, GR-coupled NADPH fluorescence, 15 min; series mostly up to 50 µM
Results filed as inconclusive are left out. The source made the active and inactive calls. Calls come from the whole dose curve; as a rule, active = well fitted inhibition curve with a large enough effect; inconclusive = small, poorly fitted or top-dose-only effect; inactive = flat fitted curve, though single readings scatter.
Classes used: 1 (yes) (active), 0 (no) (inactive)

>>> assignedcategory("Cc1ccc(-n2c(C)cc(-c3nnc4n3CCCCC4)c2C)cc1")
"0 (no)"
>>> assignedcategory("Nc1nc(OC(c2ccc(-c3cccc(F)c3)cc2)C(F)(F)F)cc(-c2ccc(C[C@@H](N)C(=O)O)cc2)n1 (some centres undefined)")
"0 (no)"
>>> assignedcategory("N#Cc1ccc(N(Cc2ccc(Br)cc2)n2cnnc2)cc1")
"0 (no)"
>>> assignedcategory("Cc1cc2cc(Oc3ccnc(Nc4cccc(CS(=O)(=O)NCCN(C)C)c4)n3)ccc2[nH]1")
"0 (no)"
>>> assignedcategory("N#CCC1(n2cc(-c3ncnc4[nH]ccc34)cn2)CN(C2CCN(C(=O)c3ccnc(C(F)(F)F)c3F)CC2)C1")
"1 (yes)"
>>> assignedcategory("CNC(=O)Cn1cc(-c2ccc3c(c2)C(F)CC32NC(=O)N(CC(=O)N(Cc3ccc(F)cc3)[C@@H](C)C(F)(F)F)C2=O)cn1 (some centres undefined)")
"0 (no)"
>>> assignedcategory("CC1=NN(c2ccc(C(=O)O)cc2)C(=O)/C1=C/c1ccc(-c2cc(C)c(C)cc2[N+](=O)[O-])o1")
"0 (no)"
>>> assignedcategory("COC(=O)C1=C(C)NC(c2ncc(F)cc2F)=N[C@@H]1c1ccc(F)cc1Cl")
"0 (no)"
>>> assignedcategory("Cc1nc2cccc(N)c2c(=O)n1C1CCC(=O)NC1=O (centres undefined)")
"0 (no)"
>>> assignedcategory("CC1(C)C(N(O)C(=O)Nc2ccc(Cl)cc2)N(c2ccc(Cl)cc2)C(=O)N1CC(=O)N/N=C/C=C/c1ccc([N+](=O)[O-])o1 (centres undefined)")
"1 (yes)"
>>> assignedcategory("Cc1ccc(NC(=O)NCc2ccc3c(c2)CN(C2CCC(=O)NC2=O)C3=O)cc1Cl (centres undefined)")
"0 (no)"
>>> assignedcategory("CN1C(=O)[C@@H](NC(=O)c2cc(Cc3ccccc3)on2)COc2ccccc21")
"0 (no)"
>>> assignedcategory("COc1cc([C@@H]2c3cc4c(cc3[C@@H](O[C@@H]3O[C@@H]5CO[C@@H](c6cccs6)O[C@H]5[C@H](O)[C@H]3O)[C@H]3COC(=O)[C@H]23)OCO4)cc(OC)c1O")
"0 (no)"
>>> assignedcategory("O=C(/C=C/C#Cc1cccc(NS(=O)(=O)c2ccccc2)c1)NO")
"0 (no)"
>>> assignedcategory("Cn1nccc1Nc1nccc(-c2cc3c(s2)C(C)(C)N(CCN2CCOCC2)C3=O)n1")
"0 (no)"
>>> assignedcategory("CCS(=O)(=O)c1ccc2oc(-c3ccc4ccccc4c3)nc2c1")
"0 (no)"
>>> assignedcategory("Cc1c(CN2CCN(C(=O)[C@H](C)O)CC2)sc2c(N3CCOCC3)nc(-c3cnc(N)nc3)nc12")
"0 (no)"
>>> assignedcategory("C=C1C(=O)O[C@@H]2[C@H]3C(C)=CC[C@@]34O[C@@]4(C)CC[C@@H]12")
"0 (no)"
>>> assignedcategory("Clc1cccc(-c2ccc(-c3nnc(CCCc4ccc5cccnc5n4)o3)cc2)c1")
"0 (no)"

====

- methodNotes: Stat Signaling Pathway (AID 446);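 note: ME-180 cervical cancer cells given 40 pM IL-6 alongside compound; SIE-controlled beta-lactamase reporter measured as 460/530 nm FRET emission ratio; % is set by controls: 0 for no effect and ±100 for the full control effect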
- conditionSet: ME-180 (cervical carcinoma) SIE beta-lactamase reporter, IL-6 stimulated, 5 h; at 7.69 µM (top of the series) unless noted
- Description: NCGC Assay Overview: The IL-6/STAT signaling pathway was assayed in ME-180 cervical carcinoma cells by a beta-lactamase reporter gene controlled by a STAT Inducible Element (SIE). This reporter is induced by IL-6 at 40 pM AC50 and inhibited by the pan JAK inhibitor, 2-(1,1-Dimethylethyl)-9-fluoro-3,6-dihydro-7H-benz[h]-imidaz[4,5-f]isoquinolin-7-one, at approximately 10 nM AC50. Plated cells were incubated overnight and on the following day, stimulated with 40 pM IL-6 for 5 hrs. […]
Records with an inconclusive call do not appear.
Param threshold (10%) applies to activity, negative = inhibition; output Condition met when value >= threshold, Condition not met when value < threshold.

>>> assignedcategory("CS(=O)(=O)N1CCC2(CCN(C(c3ccccc3)c3ccccc3)CC2)CC1")
"Condition not met"
>>> assignedcategory("COc1ccccc1CNc1cc(-c2c(C)noc2C)ncn1")
"Condition not met"
>>> assignedcategory("Cc1cnc(CNc2ncncc2-c2ccc(C(=O)N(C)C)cc2)cn1")
"Condition not met"
>>> assignedcategory("COc1ccccc1CCn1c(=O)c(-c2cc(F)cc(F)c2)nc2cncnc21")
"Condition met"
>>> assignedcategory("COCCNc1ncnc2ccc(-c3ccc(C(=O)N(C)C)cc3)cc12")
"Condition not met"

====

- System: CP260
- methodNotes: qHTS profiling for inhibitors of Plasmodium falciparum proliferation (AID 504749); note: nearly all actives have a fitted effect of over 60% in size
- conditionSet: P. falciparum in erythrocytes, SYBR Green DNA, 72 h; series mostly up to 28.7 µM
Inconclusive results are not listed. Calls of active or inactive are those of the source. Calls come from the whole dose curve; as a rule, active = well fitted inhibition curve with a large enough effect; inconclusive = small, poorly fitted or top-dose-only effect; inactive = flat fitted curve, though single readings scatter.
Classes used: active, inactive

>>> assignedcategory("Oc1ccc(/C=C\\c2cc(O)cc(O)c2)cc1")
"inactive"
>>> assignedcategory("COc1ccc(CCNC[C@@H](O)c2ccc(O)cc2)cc1OC")
"inactive"
>>> assignedcategory("N[C@H](Cc1ccc(O)c(O)c1)C(=O)O")
"inactive"
>>> assignedcategory("C=C1/C(=C\\C=C2/CCC[C@]3(C)[C@@H]([C@H](C)CCCC(C)(C)O)CC[C@@H]23)C[C@@H](O)C[C@@H]1O")
"inactive"
>>> assignedcategory("CC(C)C[C@H]1C(=O)N2CCCC2[C@]2(O)O[C@](NC(=O)[C@@H]3C=C4c5cccc6[nH]c(Br)c(c56)C[C@H]4N(C)C3)(C(C)C)C(=O)N12 (stereo not given in full)")
"active"

====

- target: Cytochrome P450 1A2 (Homo sapiens) (UniProt P05177)
- Sequence (P05177 whole entry, looked up): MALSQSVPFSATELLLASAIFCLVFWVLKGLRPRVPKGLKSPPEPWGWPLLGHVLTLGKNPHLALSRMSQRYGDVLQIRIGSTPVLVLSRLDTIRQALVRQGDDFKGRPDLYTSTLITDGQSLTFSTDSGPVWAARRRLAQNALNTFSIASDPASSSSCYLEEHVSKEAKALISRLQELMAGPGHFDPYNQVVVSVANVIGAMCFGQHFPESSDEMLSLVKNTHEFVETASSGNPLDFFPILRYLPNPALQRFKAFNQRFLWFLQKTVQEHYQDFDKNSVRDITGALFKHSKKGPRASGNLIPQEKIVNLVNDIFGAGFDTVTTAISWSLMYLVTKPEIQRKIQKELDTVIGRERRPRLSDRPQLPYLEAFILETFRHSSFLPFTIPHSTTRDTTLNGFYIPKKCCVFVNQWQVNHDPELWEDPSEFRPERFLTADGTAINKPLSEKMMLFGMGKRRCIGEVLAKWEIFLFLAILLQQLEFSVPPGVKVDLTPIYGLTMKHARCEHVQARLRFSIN
- methodNotes: p450-cyp1a2 (AID 410)
- conditionSet: recombinant CYP1A2, luciferin-ME demethylation, luminescence; series mostly up to 57 µM
- Description: The P450 gene superfamily is involved in metabolism and the clearance of xenobiotics. This assay used human CYP1A2 to measure the demethylation of luciferin 6' methyl ether (Luciferin-ME; Promega-Glo) to luciferin. The luciferin is then measured by luminescence after the addition of a luciferase detection regeant. Luciferin-ME concentration in the assay was equal to its Km for CYP1A2. NCGC Assay Protocol Summary: […]
Results filed as inconclusive are left out. Calls of active or inactive are those of the source. Calls follow the shape of the full dose curve.
Classes used: y (active), n (inactive)

>>> assignedcategory("Cc1ccccc1-c1cc(NCc2ccccc2)ncn1")
"y"
>>> assignedcategory("COCCNc1ncnc2ccc(-c3ccoc3)cc12")
"y"
>>> assignedcategory("Cc1noc(C)c1-c1ccc2ncnc(NC3CCNCC3)c2c1")
"y"
>>> assignedcategory("CS(=O)(=O)Nc1cccc(-c2ccc3ncnc(Nc4ccccc4)c3c2)c1")
"y"
>>> assignedcategory("COc1cccc(-c2cncnc2NCc2ccccc2)c1")
"y"
>>> assignedcategory("N=C1Sc2ccccc2C2=NCCCN12")
"y"
>>> assignedcategory("COc1cccc(Cn2c(=O)cnc3cncnc32)c1")
"y"
>>> assignedcategory("COCC(=O)N1CCC2(CC1)CCN(c1ccccn1)CC2")
"n"
>>> assignedcategory("O=c1cnc2cnc(N3CCNCC3)nc2n1Cc1ccc(F)cc1")
"y"
>>> assignedcategory("O=C(Nc1cccc(F)c1)N1CCC2(CCNCC2)CC1")
"n"
>>> assignedcategory("O=C(c1ccncc1)N1CCC2(CC1)CCN(C(c1ccccc1)c1ccccc1)CC2")
"y"
>>> assignedcategory("O=C(Nc1ccccc1)N1CCCC2(CCN(C(=O)c3ccco3)CC2)C1")
"y"
>>> assignedcategory("O=C(c1csnn1)N1CCC2(CC1)CN(C(c1ccccc1)c1ccccc1)C2")
"n"
>>> assignedcategory("O=C(c1csnn1)N1CCC2(CC1)CN(Cc1cc(C(F)(F)F)cc(C(F)(F)F)c1)C2")
"n"
>>> assignedcategory("CS(=O)(=O)Nc1cccc(-c2cncnc2Nc2ccc(F)cc2)c1")
"y"
>>> assignedcategory("O=C(c1cccc(F)c1)N1CCC2(CC1)CCN(c1ccccc1)CC2")
"y"
>>> assignedcategory("CC(=O)N1CCC2(CCN(Cc3ccncc3)CC2)CC1")
"n"
>>> assignedcategory("O=C(Nc1cccc(F)c1)N1CCC2(CC1)CCN(C(=O)c1cnccn1)CC2")
"n"
>>> assignedcategory("O=C(Nc1ccccc1)N1CCCC2(CCN(C(=O)c3cc(C(F)(F)F)cc(C(F)(F)F)c3)CC2)C1")
"y"
>>> assignedcategory("O=C(c1ccco1)N1CCC2(CC1)CCN(c1ccccc1)CC2")
"n"
>>> assignedcategory("COc1ccc2[nH]cc(CCNc3ncncc3-c3c(C)noc3C)c2c1")
"y"
>>> assignedcategory("CS(=O)(=O)N1CCC2(CC1)CN(c1ccncc1)C2")
"n"
>>> assignedcategory("Cc1cnc(CNc2ncncc2-c2ccccc2C#N)cn1")
"y"
>>> assignedcategory("Cc1noc(C)c1C(=O)N1CCC2(CCCN(C(c3ccccc3)c3ccccc3)C2)CC1")
"n"
>>> assignedcategory("O=c1cnc2cnc(N3CCOCC3)nc2n1CCc1ccccc1")
"y"
>>> assignedcategory("O=c1c(-c2cc(F)cc(F)c2)nc2cnc(N3CCOCC3)nc2n1C1CC1")
"y"
>>> assignedcategory("CN1CCN(c2ncnc3ccc(-c4ccc(C(=O)N(C)C)cc4)cc23)CC1")
"n"
>>> assignedcategory("CNc1cc(-c2ccccc2C(F)(F)F)ncn1")
"y"
>>> assignedcategory("FC(F)(F)c1ccccc1-c1cc(NCc2ccccc2)ncn1")
"y"
>>> assignedcategory("COC(=O)N1CCC[C@@]2(CCN(C(=O)Nc3ccccc3)C2)C1")
"y"
>>> assignedcategory("COc1ccccc1CN1CC[C@@]2(CCCN(C(=O)c3c(C)noc3C)C2)C1")
"n"
>>> assignedcategory("COc1ccc(-c2nc3cnc(N4CCN(C)CC4)nc3n(Cc3ccc(F)cc3)c2=O)cc1")
"y"
>>> assignedcategory("COc1ncc2ncc(=O)n(C)c2n1")
"y"
>>> assignedcategory("COCCn1c(=O)cnc2cnc(Oc3ccccc3)nc21")
"y"
>>> assignedcategory("COCCn1c(=O)c(C)nc2cnc(N3CCN(C)CC3)nc21")
"y"
>>> assignedcategory("O=C(c1ccncc1)N1CCC2(CC1)CCN(c1cccc(-c3ccccc3)c1)CC2")
"y"
>>> assignedcategory("COc1cccc(Cn2c(=O)c(-c3cc(F)cc(F)c3)nc3cnc(N(C)C)nc32)c1")
"n"
>>> assignedcategory("Cc1nc2cnc(N3CCN(C)CC3)nc2n(CCC#N)c1=O")
"y"
>>> assignedcategory("CS(=O)(=O)N1CCC2(CCCN(C(=O)Nc3cccc(C#N)c3)C2)CC1")
"n"
>>> assignedcategory("COC(=O)N1CCC2(CCCN(c3ccc(-c4ccccc4)cc3)C2)CC1")
"y"
>>> assignedcategory("O=C(Nc1cccc(F)c1)N1CCCC2(CCN(S(=O)(=O)c3ccccc3)CC2)C1")
"n"
>>> assignedcategory("O=C(c1cc(C(F)(F)F)cc(C(F)(F)F)c1)N1CCC2(CC1)CCN(c1ccccn1)CC2")
"n"
>>> assignedcategory("COc1cccc(-c2nc(NCc3ccccc3)c3ccccc3n2)c1")
"y"
>>> assignedcategory("COc1ccc(-n2c(=O)cnc3cnc(N4CCNCC4)nc32)cc1")
"y"
>>> assignedcategory("CN(C)c1ncc2nc(-c3cccs3)c(=O)n(C[C@H]3CCCO3)c2n1")
"y"
